B1: glmS ribozyme (parent)
chain: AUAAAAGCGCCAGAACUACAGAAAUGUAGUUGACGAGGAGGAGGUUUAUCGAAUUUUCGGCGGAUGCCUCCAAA

variants of: B1; assay: self-cleavage kobs at 40 uM GlcN6P; higher = faster cleavage; RNA array; conditions: with glucosamine-6-phosphate
Fewer inactive variants are shown than the library holds.
Can you tell me self-cleavage kobs at 40 uM GlcN6P for the items I'm about to list?

Ask | Can you share its self-cleavage kobs at 40 uM GlcN6P? I mean this variant: G29U U54C
Reply | 0.000157 s⁻¹

Ask | Repeat for the following variant: A53G C61U
Reply | < 1e-05 s⁻¹

Ask | Do the same for A42C A52U C61U please
Reply | < 1e-05 s⁻¹

Ask | Again, but for G32A G41C
Reply | < 1e-05 s⁻¹

Ask | Next variant: G38A G43U C67U
Reply | < 1e-05 s⁻¹
